// reported Population Hoechst High Intensity Objects (%) for each item listed
Tested on: HEK-293T
experimental-details: Multiplex assay against HEK293T
Format: toxicity, cell-based
test-parameters: human, 24 h, 1 µM, compound concentration 1 uM, replicate 1
Kindly provide the numeric value in % only, without the unit symbol.

Documented Population Hoechst High Intensity Objects (%) of O=C(Nc1ccc(-n2nc(-c3cccnc3)cc2C(F)(F)F)cn1)c1ccc(-c2ccccc2)c(F)c1 [BI 2049] : 26

Reported Population Hoechst High Intensity Objects (%) ( `Cc1cc(C)c(S(=O)(=O)N(Cc2ccc(-c3cccc(S(C)(=O)=O)c3)cc2)Cc2ccc(C(F)(F)F)o2)c(C)c1` ) = 9

Per the records, this compound ( `CCNc1cc(N[C@H]2CC[C@H](O)CC2)nc(Nc2ccc3c(ccn3Cc3ccccc3)c2)n1` ) has Population Hoechst High Intensity Objects (%) equal to 7

Population Hoechst High Intensity Objects (%) reading for CN(C)C(=O)C(CCN1CCC(O)(c2ccc(Cl)cc2)CC1)(c1ccccc1)c1ccccc1.Cl [LOPERAMIDE HYDROCHLORIDE] : 16

Reference for the values: ChEMBL document CHEMBL4689842
